Source listed as the supplement of paper PMC5949888.

Test system: Saccharomyces cerevisiae PS128 hsf1 delta, HSF1(1-493) fusion
Protocol notes: growth estimate (transactivation domain function in HSF1 fusion, heat-shock survival) (a.u. (slope of normalised read count over time)); higher = stronger growth at 37°C, i.e. more transactivation activity
Condition description: library: design library
Measured quantity: growth estimate
In your answer, state the number alone without any accompanying words.

Worked examples, 10 sequences total:
{"Seq": "DELSWIRELLEKDG", "System": "Saccharomyces cerevisiae PS128 hsf1 delta, HSF1(1-493) fusion", "growth estimate": 1.03}
{"Seq": "LFDGDFLFGNDFA", "System": "Saccharomyces cerevisiae PS128 hsf1 delta, HSF1(1-493) fusion", "growth estimate": 1.7}
{"Seq": "QQNGEIAQLWDGN", "System": "Saccharomyces cerevisiae PS128 hsf1 delta, HSF1(1-493) fusion", "growth estimate": -0.163}
{"Seq": "MLSSHGFSADTSALLDLFSP", "System": "Saccharomyces cerevisiae PS128 hsf1 delta, HSF1(1-493) fusion", "growth estimate": -0.026}
{"Seq": "VADDIWEELLSKDL", "System": "Saccharomyces cerevisiae PS128 hsf1 delta, HSF1(1-493) fusion", "growth estimate": 2.92}
{"Seq": "LFDYDFLFGNRFA", "System": "Saccharomyces cerevisiae PS128 hsf1 delta, HSF1(1-493) fusion", "growth estimate": -0.205}
{"Seq": "PFPDTQDDFLKWWASEEAQ", "System": "Saccharomyces cerevisiae PS128 hsf1 delta, HSF1(1-493) fusion", "growth estimate": 4.59}
{"Seq": "QQPGEIAQLWDFN", "System": "Saccharomyces cerevisiae PS128 hsf1 delta, HSF1(1-493) fusion", "growth estimate": -0.242}
{"Seq": "DFDLRMLGDFDLDMLG", "System": "Saccharomyces cerevisiae PS128 hsf1 delta, HSF1(1-493) fusion", "growth estimate": 6.25}
{"Seq": "GELSWIIELLEKDG", "System": "Saccharomyces cerevisiae PS128 hsf1 delta, HSF1(1-493) fusion", "growth estimate": -0.152}

Fill in the recorded growth estimate for this sequence, with Saccharomyces cerevisiae PS128 hsf1 delta, HSF1(1-493) fusion as test system: MLSSHGFSVDTSAGLDLFSP
-0.207

Fill in the recorded growth estimate for this sequence, with Saccharomyces cerevisiae PS128 hsf1 delta, HSF1(1-493) fusion as test system: EDLYSILWSAVY
-0.107

Fill in the recorded growth estimate for this sequence, with Saccharomyces cerevisiae PS128 hsf1 delta, HSF1(1-493) fusion as test system: VADDPWEELLSEDL
-0.214

---

Test system: Saccharomyces cerevisiae PS128 hsf1 delta, HSF1(1-493) fusion
Protocol notes: growth estimate (transactivation domain function in HSF1 fusion, heat-shock survival) (a.u. (slope of normalised read count over time)); higher = stronger growth at 37°C, i.e. more transactivation activity
Condition description: library: design library
1.0 means recorded growth estimate is -0.1 or above; 0.0 means it is below -0.1.

Example results:
{"Seq": "PFPDTQDDFLKWWRSEEKQ", "System": "Saccharomyces cerevisiae PS128 hsf1 delta, HSF1(1-493) fusion", "Class name": 0.0}
{"Seq": "DLDESWDAIFETTE", "System": "Saccharomyces cerevisiae PS128 hsf1 delta, HSF1(1-493) fusion", "Class name": 0.0}
{"Seq": "EFNDLLDLAFILSN", "System": "Saccharomyces cerevisiae PS128 hsf1 delta, HSF1(1-493) fusion", "Class name": 0.0}
{"Seq": "PFPDTQDDFLKWWRSKEAQ", "System": "Saccharomyces cerevisiae PS128 hsf1 delta, HSF1(1-493) fusion", "Class name": 0.0}
{"Seq": "MLSSHGFSVDTSALLDLFSK", "System": "Saccharomyces cerevisiae PS128 hsf1 delta, HSF1(1-493) fusion", "Class name": 0.0}

Hi team, for AFPDTQDDFLKWWRSEEAQ , is the recorded growth estimate at or above -0.1?
1.0

Hi team, for DLDESWRYIFETTE , is the recorded growth estimate at or above -0.1?
1.0

Hi team, for PEFPGIELQRLQELQALLQQ , is the recorded growth estimate at or above -0.1?
0.0

Hi team, for DFDLDMLGDFPLDMLG , is the recorded growth estimate at or above -0.1?
1.0

Hi team, for DGLSWIIELLEKDG , is the recorded growth estimate at or above -0.1?
0.0

Hi team, for DELSAIIELLEKDG , is the recorded growth estimate at or above -0.1?
0.0

Hi team, for QQNGEIAQLWDAN , is the recorded growth estimate at or above -0.1?
0.0

Hi team, for EDLYSILWSDKY , is the recorded growth estimate at or above -0.1?
0.0

Hi team, for DLDEPWDYIFETTE , is the recorded growth estimate at or above -0.1?
1.0
